Hey, just so you know, these numbers are from paper PMC9490041.

target: PSG G335A (PSD-95); experiment: FP displacement (competition) of FITC-15 AA CRIPT by library peptide, IC50 and Ki; conditions: read-out: IC50 (µM), PSG G335A; FP displacement of FITC-15 AA CRIPT probe by acetylated PSD library peptide
Parameter IC50: see the listing below.

smiles code | IC50 [µM]
CC[C@H](C)[C@H](NC(=O)[C@@H](NC(=O)[C@H](CCCCN)NC(=O)[C@H](CCCCN)NC(=O)CNC(=O)[C@H](CC(C)C)NC(=O)[C@H](CCCCN)NC(=O)[C@H](C)NC(=O)[C@H](CCSC)NC(=O)[C@H](CCCNC(=N)N)NC(=O)[C@H](CCSC)NC(=O)[C@H](CCCNC(=N)N)NC(=O)[C@H](CC(C)C)NC(=O)[C@H](C)NC(=O)[C@H](Cc1ccc(O)cc1)NC(C)=O)C(C)C)C(=O)O | 1600
CC[C@H](C)[C@H](NC(=O)[C@H](CO)NC(=O)[C@H](CCC(N)=O)NC(=O)[C@H](CCCNC(=N)N)NC(=O)[C@H](CCCCN)NC(=O)[C@H](CO)NC(=O)[C@H](CC(=O)O)NC(=O)[C@@H]1CCCN1C(=O)[C@H](Cc1ccc(O)cc1)NC(C)=O)C(=O)N[C@@H](CC(C)C)C(=O)N[C@@H](Cc1ccccc1)C(=O)N[C@@H](CO)C(=O)N[C@H](C(=O)N[C@@H](CCC(=O)O)C(=O)N[C@H](C(=O)O)C(C)C)[C@@H](C)O | 33
CC(=O)N[C@@H](Cc1ccc(O)cc1)C(=O)N[C@@H](CC(C)C)C(=O)N1CCC[C@H]1C(=O)N[C@@H](CC(C)C)C(=O)N[C@@H](CC(=O)O)C(=O)N[C@H](C(=O)N[C@@H](CCC(N)=O)C(=O)N[C@@H](CCC(=O)O)C(=O)NCC(=O)N[C@@H](CC(=O)O)C(=O)N[C@@H](Cc1ccccc1)C(=O)N[C@@H](CCC(N)=O)C(=O)N[C@H](C(=O)N[C@@H](CCC(=O)O)C(=O)N[C@H](C(=O)O)C(C)C)[C@@H](C)O)C(C)C | 1130

----------
Each entry below lists one item and its recorded Ki value.
target: PSG (PSD-95); assay: FP displacement (competition) of FITC-15 AA CRIPT by library peptide, IC50 and Ki; details: read-out: Ki (µM), PSG; FP displacement of FITC-15 AA CRIPT probe by acetylated PSD library peptide
Ends that are not written are not given here.

substance | Ki [µM]
Ac-YSRQHSKLLDFDDVL [NSMF] | 592
Ac-YLTGAPLATSDETSI [SEM4F] | 743
Ac-YDKPLSKKHAHSVNF [PDLI5] | 879
Ac-YPPSSPTLSVSSTSL [KLH17] | 679
Ac-YQARRGKKKSGSLVL [RHOA] | 923

----------
biological target: PSG G335A (PSD-95); assay: FP displacement (competition) of FITC-15 AA CRIPT by library peptide, IC50 and Ki; details: read-out: IC50 (µM), PSG G335A; FP displacement of FITC-15 AA CRIPT probe by acetylated PSD library peptide
So basically, if IC50 comes in under 20 µM it's condition met, and if it's 20 µM or more it's condition not met.

molecule | tgt | group
CC[C@H](C)[C@H](NC(=O)[C@H](Cc1ccccc1)NC(=O)[C@H](CO)NC(=O)[C@H](CCCNC(=N)N)NC(=O)[C@H](CCCCN)NC(=O)[C@@H]1CCCN1C(=O)[C@H](CCCCN)NC(=O)[C@H](C)NC(=O)[C@H](C)NC(=O)[C@@H](NC(=O)[C@H](Cc1ccc(O)cc1)NC(C)=O)[C@@H](C)O)C(=O)N[C@@H](CCC(=O)O)C(=O)N[C@@H](CO)C(=O)N[C@@H](CC(N)=O)C(=O)N[C@H](C(=O)O)C(C)C | PSG G335A (PSD-95) | condition not met
CC(=O)N[C@@H](Cc1ccc(O)cc1)C(=O)N[C@@H](C)C(=O)N[C@@H](CO)C(=O)N[C@@H](CC(N)=O)C(=O)N[C@H](C(=O)N[C@@H](CC(N)=O)C(=O)N[C@H](C(=O)N[C@@H](CC(C)C)C(=O)N[C@@H](CC(N)=O)C(=O)N[C@@H](CCCNC(=N)N)C(=O)N[C@@H](CCCCN)C(=O)N[C@H](C(=O)N[C@H](C(=O)N1CCC[C@H]1C(=O)N[C@H](C(=O)O)C(C)C)[C@@H](C)O)[C@@H](C)O)[C@@H](C)O)[C@@H](C)O | PSG G335A (PSD-95) | condition not met
CC[C@H](C)[C@H](NC(=O)[C@H](Cc1ccccc1)NC(=O)[C@H](Cc1ccc(O)cc1)NC(=O)[C@@H]1CCCN1C(=O)[C@H](CCC(N)=O)NC(=O)[C@H](Cc1ccc(O)cc1)NC(C)=O)C(=O)N[C@H](C(=O)N[C@@H](CC(N)=O)C(=O)N[C@@H](CO)C(=O)N[C@@H](CCCCN)C(=O)N[C@H](C(=O)N[C@@H](CCC(=O)O)C(=O)N[C@H](C(=O)N[C@H](C(=O)N[C@H](C(=O)O)C(C)C)[C@@H](C)O)C(C)C)[C@@H](C)O)[C@@H](C)O | PSG G335A (PSD-95) | condition not met
CC(=O)N[C@@H](Cc1ccc(O)cc1)C(=O)N[C@@H](CCC(N)=O)C(=O)N[C@@H](CCCNC(=N)N)C(=O)NCC(=O)N[C@@H](CO)C(=O)N[C@@H](Cc1ccccc1)C(=O)N1CCC[C@H]1C(=O)N1CCC[C@H]1C(=O)N[C@@H](Cc1c[nH]c2ccccc12)C(=O)N[C@H](C(=O)N[C@@H](CCC(N)=O)C(=O)N[C@@H](CCC(N)=O)C(=O)N[C@H](C(=O)N[C@@H](CCCNC(=N)N)C(=O)N[C@H](C(=O)O)C(C)C)[C@@H](C)O)C(C)C [SYNGAP⍺1] | PSG G335A (PSD-95) | condition met
CSCC[C@H](NC(=O)[C@H](CO)NC(=O)[C@H](Cc1ccc(O)cc1)NC(=O)[C@H](CC(C)C)NC(=O)[C@H](Cc1ccc(O)cc1)NC(=O)[C@H](Cc1ccc(O)cc1)NC(=O)[C@H](Cc1ccccc1)NC(=O)[C@H](Cc1ccc(O)cc1)NC(C)=O)C(=O)N[C@H](C(=O)N[C@@H](Cc1ccc(O)cc1)C(=O)N[C@H](C(=O)N[C@@H](CC(C)C)C(=O)N[C@H](C(=O)N[C@@H](CO)C(=O)N[C@@H](Cc1ccccc1)C(=O)O)C(C)C)[C@@H](C)O)C(C)C | PSG G335A (PSD-95) | condition not met
